# Test system: SN12C renal
# ASSAY_TEXT: NCI-60 one-dose screen, 48 h
# CONDITION_SUMMARY: 10 µM unless noted
Compounds without any hit were thinned out: in the full panel of roughly 83,000, 20% have a hit. Calls of active or inactive are those of the source. Rule for the calls: active = growth percent below 10; inactive = the rest.
Can you answer with just one of these options? active, inactive

{"columns": ["COMPOUND", "CLASS_NAME"],
 "data": [
  ["C/C(=C(/c1ccc(Cl)cc1)c1ccc(OCCN)cc1)c1ccc(C)cc1", "inactive"],
  ["C=C1CC[C@H]2[C@@](C)(CCC3OC(c4ccc(OCc5cn(C6CC(OC(C)=O)C(OC(C)=O)C(COC(C)=O)O6)nn5)cc4)OC[C@]32C)[C@@H]1/C=C/C1=CCOC1=O (stereo partly drawn)", "inactive"],
  ["C=CCSc1ccc2c(c1)C(N1CCNCC1)=Nc1ccccc1O2", "inactive"],
  ["O=C(c1ccc(O)cc1)C1[C@H](c2ccc(Cl)cc2)[C@@H](c2ccccc2)NC12C(=O)Nc1ccc(Cl)cc12 (stereo partly drawn)", "active"]
]}

Shift focus to the following entry.
Per the assay record, what outcome was assigned to `CO/N=C1\CCc2c(sc(NC(=O)c3cccc(C(F)(F)F)c3)c2C(N)=O)C1` ? inactive

====

# System: HOP-62 NSCLC
# ASSAY_TEXT: NCI-60 one-dose screen, 48 h (100 = growth as untreated, 0 = no growth, -100 = all killed)
# CONDITION_SUMMARY: 10 µM unless noted
About 83,000 compounds went through this panel and 20% of them were active in at least one assay; those are over-represented in the sample as a whole. Calls of active or inactive are those of the source. The calls were made as follows: active = growth percent below 10; inactive = the rest.
# reported growth; entries follow

Reference set, count: 5
{"columns": ["COMPOUND", "growth"],
 "data": [
  ["COC(=O)C1CCCN(S(=O)(=O)/N=C2\\NC(=O)NC2=C(Cl)Cl)C1 (stereo not given)", "118% (inactive)"],
  ["CN(C)CCCNc1c2ccc(Cl)cc2nc2c1oc1ccccc12", "46.9% (inactive)"],
  ["CC(C)(O)c1cncc(-c2ccc3ncnc(N4CCc5cc(F)c(Cl)cc54)c3c2)c1", "30.2% (inactive)"],
  ["CCN1C(=S)N(CC)C2C1N=C(SC)N2/N=C/C=C/c1ccccc1[N+](=O)[O-] (stereo not given)", "99.7% (inactive)"],
  ["OC1CCN(CCCOc2c3ccccc3nc3c2oc2ccccc23)CC1", "5.52% (active)"]
]}

Sample `CS(=O)(=O)c1ccc(-c2nc3ccccn3c2/C=N/Nc2nc(-c3ccc(Br)cc3)cs2)cc1` — what was its growth? 121% (inactive)

Consider the compound shown here: `Clc1ccc2oc3c(OCCCn4ccnc4)c4ccccc4nc3c2c1` What is its recorded growth? 87.4% (inactive)

Looking for the measured growth of `CCCSc1nc(Nc2ccc(/C(C)=N\NC(N)=S)cc2)c(C#N)c(-c2ccc(OC)cc2)n1` , can you help? 31.6% (inactive)

Query: growth; subject: `O=[N+]([O-])c1ccc(O)c2ncccc12` 19.1% (inactive)

Given the entry `COc1ccc(/C=C2\SC(=Nc3cc(C)on3)NC2=O)cc1` , report its measured growth. 96% (inactive)

What does the record list as growth for `NS(=O)(=O)c1cccc(Nc2nc(SCC(=O)c3ccc(Br)cc3)nc3ccccc23)c1` ? 59.5% (inactive)

What does the data say about its growth? Entry: `N#Cc1c(-c2ccc(Cl)cc2)nc2c(-c3ccccc3)c(Nc3ccccc3)nn2c1N` 57.5% (inactive)

Which growth is listed for `COc1cc(-c2nc3ccc(-c4nnc(SCC(=O)Nc5ccc(C(C)=O)cc5)o4)cc3[nH]2)cc(OC)c1OC` ? 98.7% (inactive)

Which measured growth value corresponds to `COc1cc(/C=C/C(=O)c2ccc(F)cc2)ccc1Oc1nc(NCCO)nc(N2CCOCC2)n1` ? 102% (inactive)

Which value of growth has been reported for `Cc1nc(-c2cc3ccccc3oc2=O)ccc1C(=O)/C=C/c1ccccn1` in the records? 103% (inactive)

Given the compound `OC1CCN(CCCOc2c3ccc(Cl)cc3nc3c2oc2ccccc23)CC1` , what is its reported growth? 12.5% (inactive)

Which value of growth has been reported for `CC(C)(C)Nc1nc2c(OCCc3ccccc3)cccn2c1-c1ccccc1Cl` in the records? -22.1% (active)

====

# Test system: BT-549 breast
# ASSAY_TEXT: NCI-60 one-dose screen, 48 h
# CONDITION_SUMMARY: 10 µM unless noted
About 83,000 compounds went through this panel and 20% of them were active in at least one assay; those are over-represented in the sample as a whole. Calls of active or inactive are those of the source. How the source made its calls: active means growth percent below 10; inactive means the rest.
Assign a class; possible classes are Yes = active, No = inactive

Would you please look over these solved cases?
{"columns": ["SMILES_REPR", "CLASS_NAME"],
 "data": [
  ["C/C(=C(/c1ccc(Cl)cc1)c1ccc(OCCN)cc1)c1ccc(C)cc1", "No"],
  ["Cc1ccc(CNS(=O)(=O)/N=C2\\NC(=O)NC2=C(Cl)Cl)cc1", "Yes"],
  ["CN(C)CCCNc1c2ccccc2nc2c1oc1ccc(Cl)cc12", "No"],
  ["Nc1c(C(=O)Nc2ccc(Cl)cc2)sc2nc(-c3cnccn3)cc(-c3cccs3)c12", "No"],
  ["N[C@@H](Cc1cn(-c2ccnc3ccccc23)nn1)C(=O)O", "No"]
]}

Read the next record carefully.
Per the assay record, what outcome was assigned to `CN(C)c1ccc(/C=C2\Cc3c(F)ccc(Br)c3C2=O)cc1` ? No

====

# Test system: MDA-MB-231 breast
# ASSAY_TEXT: NCI-60 one-dose screen, 48 h
# CONDITION_SUMMARY: 10 µM unless noted
The panel holds about 83,000 compounds, 20% with a hit somewhere; the sample as a whole holds those more often. Calls of active or inactive are those of the source. How the source made its calls: active means growth percent below 10; inactive means the rest.
Respond using exactly one of the listed classes: active, inactive

Examples from the recorded data:
{"columns": ["MOLECULE", "CLASS_NAME"],
 "data": [
  ["Cn1cc(-c2cc(N)n3nc(-c4cn(C)c5ccc(Br)cc45)cc3n2)c2cc(Br)ccc21", "inactive"],
  ["COc1cc2cc(Oc3ccc(NC(=O)c4cccc(C(F)(F)F)c4)cc3)c(C)nc2cc1OCCN1CCCCC1", "active"],
  ["N#Cc1ccc(/C=N/NC(=O)c2[nH]c3ccc(Br)cc3c2-c2ccccc2)s1", "inactive"]
]}

Assay result, entry CN1C(=S)N(C)C2C1NN=C1SC(c3ccccc3)=CC(=O)N12 (stereo unspecified) — outcome? inactive

Any idea what this test logged for `COc1ccc(C(=O)/C=C/c2ccc(Oc3nc(NCCO)nc(N4CCOCC4)n3)c(OC)c2)cc1` ? inactive

So what was the verdict on `COc1cc(/C=C/C(=O)c2cc(OC)c(OC)c(OC)c2)ccc1OCc1ccc(F)cc1` in this test? inactive

What did the test return for `Clc1ccc2c(NCCCn3ccnc3)c3oc4ccc(Cl)cc4c3nc2c1` ? inactive

Kindly provide the recorded test outcome for the following molecule: `Cn1ccnc1C(=O)/C=C/c1ccc(NC(=O)Nc2ccc(F)cc2)cc1` inactive

Short answer needed: outcome of this test for `Fc1ccc(-c2cc3nc(C(Cl)Cl)nc(-c4ccccc4)n3n2)cc1` ? active

Outcome logged for `CC(=NNc1ncnc2ccccc12)c1ccc(S(C)(=O)=O)cc1` in this assay: inactive

====

# Test system: SR leukemia
# ASSAY_TEXT: NCI-60 one-dose screen, 48 h (100 = growth as untreated, 0 = no growth, -100 = all killed)
# CONDITION_SUMMARY: 10 µM unless noted
Compounds without any hit were thinned out: in the full panel of roughly 83,000, 20% have a hit. Active and inactive are the calls of the source. The calls were made as follows: active = growth percent below 10; inactive = the rest.
MEASUREMENT_TYPE: growth

// known answers, use as guide
{"columns": ["COMPOUND", "SYSTEM_TESTED", "VALUE_OBSERVED"],
 "data": [
  ["O=C(N/N=C/c1ccc(Br)s1)c1[nH]c2ccc(Br)cc2c1-c1ccccc1", "SR leukemia", "10.1% (inactive)"],
  ["O=C(CSc1nc2sc3c(c2c(=O)n1-c1ccc(Cl)cc1)CCCC3)NNC(=O)Nc1ccc(Cl)c(C(F)(F)F)c1", "SR leukemia", "8.77% (active)"],
  ["Cn1ccnc1C(=O)/C=C/c1ccc(NC(=O)Nc2ccc(Cl)cc2)cc1", "SR leukemia", "32.6% (inactive)"],
  ["CCCC(=O)NC(c1ccc2c(c1)OC(F)(F)O2)c1cc(C)c2cccnc2c1O (stereo not given)", "SR leukemia", "13% (inactive)"]
]}

Can you share its growth? I mean this compound: `C[C@@H]1CN(c2ccc3ncc(C#Cc4cncc(C(=O)Nc5ccc(CN6CCN(C)CC6)c(C(F)(F)F)c5)c4)n3n2)C[C@H](C)O1` -24.3% (active)

====

# growth per record follows
# Test system: SK-MEL-5 melanoma
# ASSAY_TEXT: NCI-60 one-dose screen, 48 h (100 = growth as untreated, 0 = no growth, -100 = all killed)
# CONDITION_SUMMARY: 10 µM unless noted
Compounds without any hit were thinned out: in the full panel of roughly 83,000, 20% have a hit. Calls of active or inactive are those of the source. How the source made its calls: active means growth percent below 10; inactive means the rest.

{"columns": ["SMILES_REPR", "MEASUREMENT_TYPE", "VALUE_OBSERVED"],
 "data": [
  ["N#Cc1c(-c2ccc(F)cc2)nc2c(C#N)c(Nc3ccccc3)nn2c1N", "growth", "99.2% (inactive)"],
  ["CC(=NNc1ncnc2ccccc12)c1ccc(S(C)(=O)=O)cc1", "growth", "101% (inactive)"],
  ["CN(C)CCCOc1c2ccc(Cl)cc2nc2c1oc1ccccc12", "growth", "-97.9% (active)"],
  ["CC(C)(C)Nc1nc2c(OCCc3ccccc3)cccn2c1-c1ccc(O)cc1", "growth", "50.6% (inactive)"],
  ["C=CCn1c(SCC(=O)c2ccccc2)nnc1-c1c[nH]c2ccccc12", "growth", "96.6% (inactive)"],
  ["Cc1ccc2ccc3ccc(C)nc3c2n1.Cc1ccc2ccc3ccc(C)nc3c2n1.Oc1c(Cl)cc(Cl)c2ccc(CN3CCCCC3)nc12.[Ru]", "growth", "-97.9% (active)"],
  ["O=C(N/N=C/c1ccc[nH]1)c1[nH]c2ccc(Br)cc2c1-c1ccccc1", "growth", "-34.3% (active)"],
  ["Clc1ccc(-c2cn3cc(Cc4ccc(Cl)c(Cl)c4)sc3n2)cc1", "growth", "38.2% (inactive)"],
  ["COc1cc(/C=C/C(=O)c2ccc(C)cc2)ccc1Oc1nc(NCCO)nc(N2CCOCC2)n1", "growth", "43.7% (inactive)"]
]}

Then there is this compound:
Quick check: growth of `Fc1ccc(-c2cc3nc(C(Cl)Cl)nc(-c4ccc(Cl)cc4)n3n2)cc1` ? 76.9% (inactive)

Just for reference, PubChem BioAssay (NCI) is where these values come from.
